# tested system: reuptake of noradrenaline (NA) in synaptosomes (Rattus norvegicus, UniProt Q63380)
# Construct: in synaptosomes as described in WO 97/16451 (NeuroSearch A/S)
# Sequence (Q63380 1-617): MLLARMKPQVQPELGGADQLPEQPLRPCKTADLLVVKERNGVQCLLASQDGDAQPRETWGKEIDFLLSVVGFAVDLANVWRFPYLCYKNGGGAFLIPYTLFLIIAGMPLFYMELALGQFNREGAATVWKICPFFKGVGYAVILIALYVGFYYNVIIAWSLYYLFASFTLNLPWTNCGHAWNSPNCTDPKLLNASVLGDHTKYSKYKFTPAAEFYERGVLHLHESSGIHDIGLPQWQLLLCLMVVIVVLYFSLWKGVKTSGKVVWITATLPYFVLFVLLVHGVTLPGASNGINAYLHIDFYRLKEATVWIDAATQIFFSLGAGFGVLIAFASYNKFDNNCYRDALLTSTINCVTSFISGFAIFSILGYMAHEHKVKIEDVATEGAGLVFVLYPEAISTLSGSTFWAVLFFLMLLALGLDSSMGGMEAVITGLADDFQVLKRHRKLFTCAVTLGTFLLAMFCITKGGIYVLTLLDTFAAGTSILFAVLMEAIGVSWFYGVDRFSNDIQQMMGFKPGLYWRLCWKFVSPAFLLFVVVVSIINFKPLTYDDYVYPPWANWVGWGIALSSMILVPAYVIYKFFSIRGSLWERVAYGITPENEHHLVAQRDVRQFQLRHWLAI
# method description: Inhibition of noradrenaline reuptake in synaptosomes
# stated conditions: 3H-NA, read-out: NA-uptake IC50
attribute measured: pIC50
Just the number, please; pIC50 means minus log10 of the concentration in mol/L.

INPUT: Reported pIC50, compound "O=c1n(CCN2CCN(c3ccc4[nH]ccc4c3)CC2)c2ccccc2n1C1=CCCCC1" : ____
OUTPUT: 5.92

INPUT: Reported pIC50, compound "C=C(C)n1c(=O)n(CCN2CCN(c3ccc4[nH]ccc4c3)CC2)c2ccccc21" : ____
OUTPUT: 6.54

INPUT: Reported pIC50, compound "C=C(C)n1c(=O)n(CCN2CCN(c3ccc4cc[nH]c4c3)CC2)c2ccccc21" : ____
OUTPUT: 6.96

INPUT: Reported pIC50, compound "O=c1n(CCN2CCN(c3ccc4cc[nH]c4c3)CC2)c2ccccc2n1C1=CCCCC1" : ____
OUTPUT: 6.80

INPUT: Reported pIC50, compound "C=C(C)n1c(=O)n(CCN2CCN(c3ccc4ccn(C)c4c3)CC2)c2ccccc21" : ____
OUTPUT: 7.21

INPUT: Reported pIC50, compound "Cn1ccc2cc(N3CCN(CCn4c(=O)n(C5=CCCCC5)c5ccccc54)CC3)ccc21" : ____
OUTPUT: 5.52

INPUT: Reported pIC50, compound "C=C(C)n1c(=O)n(CCN2CCN(c3ccc4c(ccn4C)c3)CC2)c2ccccc21" : ____
OUTPUT: 6.21

INPUT: Reported pIC50, compound "Cn1ccc2ccc(N3CCN(CCn4c(=O)n(C5=CCCCC5)c5ccccc54)CC3)cc21" : ____
OUTPUT: 5.96

----------
# tested system: reuptake of dopamine (DA) in synaptosomes (Rattus norvegicus, UniProt P23977)
# Construct: in synaptosomes as described in WO 97/16451 (NeuroSearch A/S)
# Sequence (P23977 whole entry): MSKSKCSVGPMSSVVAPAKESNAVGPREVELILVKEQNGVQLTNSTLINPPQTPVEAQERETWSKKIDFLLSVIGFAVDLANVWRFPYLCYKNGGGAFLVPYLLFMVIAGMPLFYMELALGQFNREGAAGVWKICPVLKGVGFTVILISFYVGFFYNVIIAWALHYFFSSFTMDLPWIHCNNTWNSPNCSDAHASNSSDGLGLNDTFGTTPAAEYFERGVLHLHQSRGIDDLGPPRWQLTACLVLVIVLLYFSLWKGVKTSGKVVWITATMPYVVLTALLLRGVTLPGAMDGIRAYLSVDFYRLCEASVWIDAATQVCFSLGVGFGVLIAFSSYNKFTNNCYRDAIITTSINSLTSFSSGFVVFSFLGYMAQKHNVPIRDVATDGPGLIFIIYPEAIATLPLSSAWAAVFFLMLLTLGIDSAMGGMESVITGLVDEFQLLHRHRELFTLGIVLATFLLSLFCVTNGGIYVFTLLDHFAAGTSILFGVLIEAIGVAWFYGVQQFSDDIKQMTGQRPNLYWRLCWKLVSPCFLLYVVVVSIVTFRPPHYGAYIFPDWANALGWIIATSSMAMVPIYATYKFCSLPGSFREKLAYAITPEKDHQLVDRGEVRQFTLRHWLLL
# method description: Inhibition of dopamine reuptake in synaptosomes
# stated conditions: 3H-DA, read-out: DA-uptake IC50
attribute measured: pIC50
Just the number, please; pIC50 means minus log10 of the concentration in mol/L.

INPUT: Reported pIC50, molecule "C=C(C)n1c(=O)n(CCN2CCN(c3ccc4cc[nH]c4c3)CC2)c2ccccc21" : ____
OUTPUT: 5.89

INPUT: Reported pIC50, molecule "Cn1ccc2cc(N3CCN(CCn4c(=O)n(C5=CCCCC5)c5ccccc54)CC3)ccc21" : ____
OUTPUT: 5.96

INPUT: Reported pIC50, molecule "C=C(C)n1c(=O)n(CCN2CCN(c3ccc4ccn(C)c4c3)CC2)c2ccccc21" : ____
OUTPUT: 5.89

INPUT: Reported pIC50, molecule "Cn1ccc2ccc(N3CCN(CCn4c(=O)n(C5=CCCCC5)c5ccccc54)CC3)cc21" : ____
OUTPUT: 5.77

INPUT: Reported pIC50, molecule "O=c1n(CCN2CCN(c3ccc4[nH]ccc4c3)CC2)c2ccccc2n1C1=CCCCC1" : ____
OUTPUT: 5.64

INPUT: Reported pIC50, molecule "O=c1n(CCN2CCN(c3ccc4cc[nH]c4c3)CC2)c2ccccc2n1C1=CCCCC1" : ____
OUTPUT: 7.57

----------
# tested system: reuptake of serotonine (5-HT) in synaptosomes (Rattus norvegicus)
# Construct: in synaptosomes as described in WO 97/16451 (NeuroSearch A/S)
# Sequence (P31652 whole entry): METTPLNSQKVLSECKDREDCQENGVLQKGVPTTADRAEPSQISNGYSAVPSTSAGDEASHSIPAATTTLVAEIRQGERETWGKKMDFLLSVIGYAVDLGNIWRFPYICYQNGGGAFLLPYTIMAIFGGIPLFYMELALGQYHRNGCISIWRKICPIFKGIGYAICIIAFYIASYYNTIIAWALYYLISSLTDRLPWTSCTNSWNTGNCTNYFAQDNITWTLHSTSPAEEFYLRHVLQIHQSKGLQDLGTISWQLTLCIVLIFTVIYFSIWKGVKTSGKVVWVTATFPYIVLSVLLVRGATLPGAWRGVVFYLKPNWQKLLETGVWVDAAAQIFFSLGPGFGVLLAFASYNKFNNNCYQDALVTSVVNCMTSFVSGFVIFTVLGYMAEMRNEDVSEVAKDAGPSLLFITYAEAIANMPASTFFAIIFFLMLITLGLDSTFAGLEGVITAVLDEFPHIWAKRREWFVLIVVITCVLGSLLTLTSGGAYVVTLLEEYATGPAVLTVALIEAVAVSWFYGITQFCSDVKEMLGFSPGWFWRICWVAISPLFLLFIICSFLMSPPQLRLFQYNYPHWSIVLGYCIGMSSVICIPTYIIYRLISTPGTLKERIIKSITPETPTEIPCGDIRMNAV
# method description: Inhibition of 5-HT reuptake in synaptosomes
# stated conditions: 3H-5-HT, read-out: 5-HT-uptake IC50
pIC50: −log10 of the molar value.
Entry flag: class 1 if pIC50 reaches 8; class 0 if it does not.

INPUT: Determine whether measured pIC50 meets or exceeds 8 for O=c1n(CCN2CCN(c3ccc4[nH]ccc4c3)CC2)c2ccccc2n1C1=CCCCC1 [Compound A7]
OUTPUT: class 0

INPUT: Determine whether measured pIC50 meets or exceeds 8 for C=C(C)n1c(=O)n(CCN2CCN(c3ccc4cc[nH]c4c3)CC2)c2ccccc21 [Compound A5]
OUTPUT: class 1

INPUT: Determine whether measured pIC50 meets or exceeds 8 for C=C(C)n1c(=O)n(CCN2CCN(c3ccc4[nH]ccc4c3)CC2)c2ccccc21 [Compound A8]
OUTPUT: class 0

INPUT: Determine whether measured pIC50 meets or exceeds 8 for C=C(C)n1c(=O)n(CCN2CCN(c3ccc4ccn(C)c4c3)CC2)c2ccccc21 [Compound A4]
OUTPUT: class 1

INPUT: Determine whether measured pIC50 meets or exceeds 8 for Cn1ccc2ccc(N3CCN(CCn4c(=O)n(C5=CCCCC5)c5ccccc54)CC3)cc21 [Compound A3]
OUTPUT: class 1

INPUT: Determine whether measured pIC50 meets or exceeds 8 for O=c1n(CCN2CCN(c3ccc4cc[nH]c4c3)CC2)c2ccccc2n1C1=CCCCC1 [Compound A6]
OUTPUT: class 1

----------
Structures can show the parent of a compound that is named as a salt.
So I've got a bunch of compounds here, and I need their melting point values.

INPUT: Reported melting point, compound C=C(C)n1c(=O)n(CCN2CCN(c3ccc4cc[nH]c4c3)CC2)c2ccccc21 [Compound A5] : ____
OUTPUT: 195 to 197 °C

INPUT: Reported melting point, compound C=C(C)n1c(=O)n(CCN2CCN(c3ccc4[nH]ccc4c3)CC2)c2ccccc21 (as salt: fumaric acid salt) [Compound A8] : ____
OUTPUT: 112 to 114 °C

INPUT: Reported melting point, compound O=c1n(CCN2CCN(c3ccc4cc[nH]c4c3)CC2)c2ccccc2n1C1=CCCCC1 [Compound A6] : ____
OUTPUT: 171 to 173 °C

INPUT: Reported melting point, compound O=c1n(CCN2CCN(c3ccc4[nH]ccc4c3)CC2)c2ccccc2n1C1=CCCCC1 (as salt: fumaric acid salt) [Compound A7] : ____
OUTPUT: 92 to 94 °C

Data origin, for the record: patent US20120220604A1
